Tested on: behaviors of compound-treated mice
Assay: Neuropharmacological Assay (SmartCube)
Assay type: in vivo
Settings: i.p. 15 min before behavioral test, most efficacious dose(s) of 3 doses
Where a name gives a salt, the structure may show the parent alone.
Result type: DP: anti-depressant (probability that activity matches class)

# Compound, Result
data = [
    ("NC[C@@H]1OCCc2c(-c3cnoc3)cccc21 (single isomer, unassigned) [Compound 86, hydrochloride salt]", "++ (5% ≤ ++ <25%)"),
    ("CNC[C@H]1OCc2c(-c3cccnc3)cccc21 [Compound 34, hydrochloride salt]", "++++ (50% ≤ ++++)"),
    ("CNCC1OCCc2c(-c3cncs3)cccc21 (stereo not drawn) [Compound 52, hydrochloride]", "++++ (50% ≤ ++++)"),
    ("CNC[C@@H]1OCCc2c(-c3ccnc(C)c3)cccc21 (single isomer, unassigned) [Compound 120, hydrochloride salt]", "++ (5% ≤ ++ <25%)"),
    ("NCC1OCCc2c(-c3cnccn3)cccc21 (stereo not drawn) [Compound 63, hydrochloride salt]", "++++ (50% ≤ ++++)"),
    ("NC[C@H]1OCCc2c(-c3ccncc3)cccc21 [Compound 20, hydrochloride salt]", "++++ (50% ≤ ++++)"),
    ("NC[C@H]1OCCc2c(-c3cnoc3)cccc21 (single isomer, unassigned) [Compound 87, hydrochloride salt]", "++++ (50% ≤ ++++)"),
    ("CNC[C@@H]1OCCc2cc(-c3ncccn3)ccc21 [Compound 21, hydrochloride salt]", "++ (5% ≤ ++ <25%)"),
    ("CNC[C@H]1OCCc2c(-c3ccnc(C)c3)cccc21 (single isomer, unassigned) [Compound 121, hydrochloride salt]", "++++ (50% ≤ ++++)"),
    ("NCC1OCCc2ccc(-c3ccncn3)cc21 (stereo not drawn) [Compound 57, hydrochloride]", "++ (5% ≤ ++ <25%)"),
    ("NC[C@@H]1OCCc2c(-c3ncc[nH]3)cccc21 (single isomer, unassigned) [Compound 108, hydrochloride salt]", "++ (5% ≤ ++ <25%)"),
    ("CNC[C@@H]1OCCc2c(-c3cnco3)cccc21 (single isomer, unassigned) [Compound 96, hydrochloride salt]", "++++ (50% ≤ ++++)"),
    ("NC[C@@H]1OCCc2c(-c3ccncc3)cccc21 [Compound 19, hydrochloride salt]", "++ (5% ≤ ++ <25%)"),
    ("CNC[C@H]1OCCc2ccc(-c3cncnc3)cc21 (single isomer, unassigned) [Compound 25, hydrochloride]", "++ (5% ≤ ++ <25%)"),
]
